Molecular target: 4-hydroxyphenylpyruvate dioxygenase (Sus scrofa, UniProt Q02110)
Sequence (Q02110 whole entry): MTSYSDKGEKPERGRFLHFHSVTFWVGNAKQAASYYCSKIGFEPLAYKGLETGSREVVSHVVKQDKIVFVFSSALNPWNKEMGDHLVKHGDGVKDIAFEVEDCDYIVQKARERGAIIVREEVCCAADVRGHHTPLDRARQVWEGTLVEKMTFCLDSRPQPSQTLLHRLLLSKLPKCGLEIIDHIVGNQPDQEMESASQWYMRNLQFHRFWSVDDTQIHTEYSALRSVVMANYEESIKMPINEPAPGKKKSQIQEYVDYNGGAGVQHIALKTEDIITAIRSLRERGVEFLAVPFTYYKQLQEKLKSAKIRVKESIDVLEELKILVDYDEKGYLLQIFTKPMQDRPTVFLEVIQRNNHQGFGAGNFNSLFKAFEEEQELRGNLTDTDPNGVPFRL
Assay: Inhibition of 4-hydroxyphenylpyruvate dioxygenase of purified pig liver by enol-borate method
Overview of recorded log10 IC50 for various compounds
Values are log10 of IC50 in µM.

Below, each entry is followed by its recorded log10 IC50 result.
{"columns": ["Smiles Repr", "log10 IC50"],
 "data": [
  ["Cc1ccccc1C(=O)C1C(=O)CCCC1=O", 0.57],
  ["CC(C)C(=O)C1C(=O)CCCC1=O", 1.97],
  ["O=C1CCCC(=O)C1C(=O)c1ccccc1[N+](=O)[O-]", -0.80]
]}

Value of measured log10 IC50 for the entry O=C1CCCC(=O)C1C(=O)c1ccccc1I : -0.12

The reported log10 IC50 of the compound COc1ccccc1C(=O)C1C(=O)CCCC1=O was 1.07

Recorded result, O=C1CCCC(=O)C1C(=O)c1ccccc1Br , log10 IC50: -0.25

// recorded log10 IC50 for CCC(=O)C1C(=O)CCCC1=O : 1.25

The reported log10 IC50 of the compound O=C1CCCC(=O)C1C(=O)c1ccc(C(F)(F)F)cc1[N+](=O)[O-] was -1.40

* * *

Each entry below carries its recorded log10(IC50).
Target: 4-hydroxyphenylpyruvate dioxygenase (Sus scrofa, UniProt Q02110)
Assay: Inhibition of 4-hydroxyphenylpyruvate dioxygenase of purified pig liver by enol-borate method
Note the log scale: values are log10 of IC50 expressed in µM.

Measured log10(IC50) of O=C1CCCC(=O)C1C(=O)c1ccccc1C(F)(F)F : -0.60

* * *

Biological target: UniProt Q02110
Assay: Inhibition of 4-hydroxyphenylpyruvate dioxygenase of purified pig liver by enol-borate method
Reported Metric: pIC50
Please keep in mind that pIC50 is minus log10 of the molar concentration; only the number is needed.

Solved entries:
{"columns": ["Smiles Repr", "Reported Metric", "Observed Result"],
 "data": [
  ["CC(=O)C1C(=O)CCCC1=O", "pIC50", 4.95],
  ["O=C1CCCC(=O)C1C(=O)c1ccccc1Cl", "pIC50", 6.30],
  ["O=C1CCCC(=O)C1C(=O)C1CCCCC1", "pIC50", 3.44]
]}

Record summary for O=C1CCCC(=O)C1C(=O)C1CC1 : reported pIC50 = 5.22
